Tested on: 521955-158-R2-J5-PDC complex spheroid viability
Assay: Anticancer human tumor 521955-158-R2-J5-PDC patient-derived pancreatic carcinoma cell line growth inhibition [GQUAD]
Conditions: second compound 0.0316 µM; first compound 0.00999 µM; hits give low values
Each entry below carries its recorded viability, T/C.
MEASURE_NAME: viability, T/C

[[record]]
molecule = "Cc1[nH]c2ccccc2c1CCNCc1ccc(/C=C/C(=O)NO)cc1 + Cc1cnc(CNC(=O)c2c(=O)c3ccc(N4CCCN(C)CC4)nc3n3c2sc2ccccc23)cn1"
measure_name = "viability, T/C"
value = "92.3%"

[[record]]
molecule = "Cn1ncnc1[C@H]1c2n[nH]c(=O)c3cc(F)cc(c23)N[C@@H]1c1ccc(F)cc1 + Cc1cnc(CNC(=O)c2c(=O)c3ccc(N4CCCN(C)CC4)nc3n3c2sc2ccccc23)cn1"
measure_name = "viability, T/C"
value = "67.1%"

[[record]]
molecule = "Cn1ncnc1[C@H]1c2n[nH]c(=O)c3cc(F)cc(c23)N[C@@H]1c1ccc(F)cc1 + Cc1[nH]c2ccc(F)cc2c1-c1nc2c3cccnc3c3ncccc3c2[nH]1"
measure_name = "viability, T/C"
value = "93.5%"

[[record]]
molecule = "CCc1c2c(nc3ccc(O)cc13)-c1cc3c(c(=O)n1C2)COC(=O)[C@]3(O)CC + Cc1[nH]c2ccc(F)cc2c1-c1nc2c3cccnc3c3ncccc3c2[nH]1"
measure_name = "viability, T/C"
value = "8.08%"

[[record]]
molecule = "Cc1[nH]c2ccccc2c1CCNCc1ccc(/C=C/C(=O)NO)cc1 + Cc1[nH]c2ccc(F)cc2c1-c1nc2c3cccnc3c3ncccc3c2[nH]1"
measure_name = "viability, T/C"
value = "132%"

[[record]]
molecule = "Cc1[nH]c2ccccc2c1CCNCc1ccc(/C=C/C(=O)NO)cc1 + CN(C)c1ccc(Nc2c3ccc(NC(=O)CCN4CCCC4)cc3nc3cc(NC(=O)CCN4CCCC4)ccc23)cc1"
measure_name = "viability, T/C"
value = "133%"


* * *

Tested on: 521955-158-R2-J5-PDC complex spheroid viability
Assay: Anticancer human tumor 521955-158-R2-J5-PDC cell line growth inhibition [GQUAD];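 further: spheroids exposed to agents for one week before reading; 100% = DMSO vehicle control viability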
Conditions: second compound 3.16 µM; first compound 10 µM; hits give low values
Each entry below carries its recorded viability, T/C.
MEASURE_NAME: viability, T/C (%)

[[record]]
compound = "Cc1cccc(N(C)C(=O)C2C(O)CCN2c2nc(C)cc(C(F)(F)F)c2C#N)c1 (stereo not given) + Cc1cnc(CNC(=O)c2c(=O)c3ccc(N4CCCN(C)CC4)nc3n3c2sc2ccccc23)cn1"
measure_name = "viability, T/C"
value = 20.1

[[record]]
compound = "COc1cc(C2c3cc4c(cc3C(OC3OC5COC(C)OC5C(O)C3O)C3COC(=O)C23)OCO4)cc(OC)c1O (stereo not given) + Cc1cnc(CNC(=O)c2c(=O)c3ccc(N4CCCN(C)CC4)nc3n3c2sc2ccccc23)cn1"
measure_name = "viability, T/C"
value = 8.61

[[record]]
compound = "CC1COCCN1c1cc(C2(S(C)(=N)=O)CC2)nc(-c2ccnc3[nH]ccc23)n1 (stereo not given) + Cc1[nH]c2ccc(F)cc2c1-c1nc2c3cccnc3c3ncccc3c2[nH]1"
measure_name = "viability, T/C"
value = 8.99

[[record]]
compound = "C#Cc1c(F)ccc2cc(O)cc(-c3ncc4c(N5CC6CCC(C5)N6)nc(OCC56CCCN5CC(F)C6)nc4c3F)c12 (stereo not given) + Cc1cnc(CNC(=O)c2c(=O)c3ccc(N4CCCN(C)CC4)nc3n3c2sc2ccccc23)cn1"
measure_name = "viability, T/C"
value = 0.08

[[record]]
compound = "C=CC(=O)N1CCN(c2nc(=O)n(-c3c(C)ccnc3C(C)C)c3nc(-c4c(O)cccc4F)c(F)cc23)C(C)C1 (stereo not given) + Cc1[nH]c2ccc(F)cc2c1-c1nc2c3cccnc3c3ncccc3c2[nH]1"
measure_name = "viability, T/C"
value = 79.4

